Each entry below carries its recorded pIC50.
Experiment: Inhibition of Yersinia pestis protein tyrosine phosphatase
pIC50: −log10 of the molar value.
Measure: pIC50

1. O=C(O)C(=O)c1ccc(-n2cc(C(=O)N[C@@H](Cc3c[nH]c4ccccc34)Cn3cc(-c4ccc(-c5cn(C[C@H](Cc6c[nH]c7ccccc67)NC(=O)c6cn(-c7ccc(C(=O)C(=O)O)cc7)nn6)nn5)cc4)nn3)nn2)cc1: 6.26
2. O=C(O)C(=O)c1ccc(-n2cc(C(=O)N[C@H](CO)Cc3c[nH]c4ccccc34)nn2)cc1: 4.24
3. Cc1ccc(S(=O)(=O)c2cn(C[C@H](Cc3c[nH]c4ccccc34)NC(=O)c3cn(-c4ccc(C(=O)C(=O)O)cc4)nn3)nn2)cc1: 5.68
4. O=C(O)C(=O)c1ccc(-n2cc(-c3ccc(-c4ccccc4)cc3)nn2)cc1: 4.35
5. O=C(O)C(=O)c1ccc(-n2cc(-c3cccc(-c4cn(-c5ccc(C(=O)C(=O)O)cc5)nn4)c3)nn2)cc1: 4.60
6. O=C(O)C(=O)c1ccc(-n2cc(C(=O)N[C@@H](Cc3c[nH]c4ccccc34)Cn3cc(-c4cccc(-c5cn(C[C@H](Cc6c[nH]c7ccccc67)NC(=O)c6cn(-c7ccc(C(=O)C(=O)O)cc7)nn6)nn5)c4)nn3)nn2)cc1: 5.89
7. COc1ccc2cc(-c3cn(C[C@H](Cc4c[nH]c5ccccc45)NC(=O)c4cn(-c5ccc(C(=O)C(=O)O)cc5)nn4)nn3)ccc2c1: 5.68

====

System: Yersinia pestis
Test: Inhibition of Yersinia pestis protein tyrosine phosphatase at 10 uM
Measure: inhibition

1) O=C(O)C(=O)c1ccc(-n2cc(C(=O)N[C@@H](Cc3c[nH]c4ccccc34)Cn3cc(-c4cccc(-c5cn(C[C@H](Cc6c[nH]c7ccccc67)NC(=O)c6cn(-c7ccc(C(=O)C(=O)O)cc7)nn6)nn5)c4)nn3)nn2)cc1: > 60%
2) COc1ccc2cc(-c3cn(C[C@H](Cc4c[nH]c5ccccc45)NC(=O)c4cn(-c5ccc(C(=O)C(=O)O)cc5)nn4)nn3)ccc2c1: > 60%
3) Cc1ccc(S(=O)(=O)c2cn(C[C@H](Cc3c[nH]c4ccccc34)NC(=O)c3cn(-c4ccc(C(=O)C(=O)O)cc4)nn3)nn2)cc1: > 60%
4) O=C(O)C(=O)c1ccc(-n2cc(C(=O)N[C@@H](Cc3c[nH]c4ccccc34)Cn3cc(-c4ccc(-c5cn(C[C@H](Cc6c[nH]c7ccccc67)NC(=O)c6cn(-c7ccc(C(=O)C(=O)O)cc7)nn6)nn5)cc4)nn3)nn2)cc1: > 60%

====

Each entry below carries its recorded pIC50.
Assay: Inhibition of Yersinia pestis protein tyrosine phosphatase CD45
pIC50: −log10 of the molar value.
Measure: pIC50

1) Cc1ccc(S(=O)(=O)c2cn(C[C@H](Cc3c[nH]c4ccccc34)NC(=O)c3cn(-c4ccc(C(=O)C(=O)O)cc4)nn3)nn2)cc1: 4.80
2) O=C(O)C(=O)c1ccc(-n2cc(C(=O)N[C@@H](Cc3c[nH]c4ccccc34)Cn3cc(-c4cccc(-c5cn(C[C@H](Cc6c[nH]c7ccccc67)NC(=O)c6cn(-c7ccc(C(=O)C(=O)O)cc7)nn6)nn5)c4)nn3)nn2)cc1: 5.07
3) COc1ccc2cc(-c3cn(C[C@H](Cc4c[nH]c5ccccc45)NC(=O)c4cn(-c5ccc(C(=O)C(=O)O)cc5)nn4)nn3)ccc2c1: 4.77
4) O=C(O)C(=O)c1ccc(-n2cc(C(=O)N[C@@H](Cc3c[nH]c4ccccc34)Cn3cc(-c4ccc(-c5cn(C[C@H](Cc6c[nH]c7ccccc67)NC(=O)c6cn(-c7ccc(C(=O)C(=O)O)cc7)nn6)nn5)cc4)nn3)nn2)cc1: 5.08

====

Assay: Inhibition of Yersinia pestis Protein tyrosine phosphatase TC
Each entry below carries its recorded IC50.
Measure: IC50

1. Cc1ccc(S(=O)(=O)c2cn(C[C@H](Cc3c[nH]c4ccccc34)NC(=O)c3cn(-c4ccc(C(=O)C(=O)O)cc4)nn3)nn2)cc1: 2600 nM
2. O=C(O)C(=O)c1ccc(-n2cc(C(=O)N[C@@H](Cc3c[nH]c4ccccc34)Cn3cc(-c4ccc(-c5cn(C[C@H](Cc6c[nH]c7ccccc67)NC(=O)c6cn(-c7ccc(C(=O)C(=O)O)cc7)nn6)nn5)cc4)nn3)nn2)cc1: 710 nM
3. O=C(O)C(=O)c1ccc(-n2cc(C(=O)N[C@@H](Cc3c[nH]c4ccccc34)Cn3cc(-c4cccc(-c5cn(C[C@H](Cc6c[nH]c7ccccc67)NC(=O)c6cn(-c7ccc(C(=O)C(=O)O)cc7)nn6)nn5)c4)nn3)nn2)cc1: 1800 nM
4. COc1ccc2cc(-c3cn(C[C@H](Cc4c[nH]c5ccccc45)NC(=O)c4cn(-c5ccc(C(=O)C(=O)O)cc5)nn4)nn3)ccc2c1: 2600 nM
